- System: A. baumannii strain 98-37-09
- test: AK assay 384-well format, Prestwick library screening
- Assay type: cell-based, Acinetobacter baumannii
- cond: Acinetobacter baumannii, 983709, 3 h; 50 μM final drug concentration; planktonic; cutoff for positive 3-fold increase; read-out: AK-based Prestwick Library Screening Results, A. baumannii (fold increase in extracellular AK activity)
Structures can show the parent of a compound that is named as a salt.
property_label: fold induction at 50 µM
Respond using a number only.

# count of solved cases: 5
[
  {
    "compound": "COc1c(C)c2c(c(O)c1C/C=C(\\C)CCC(=O)O)C(=O)OC2",
    "property_label": "fold induction at 50 µM",
    "meas_value": 1.2
  },
  {
    "compound": "C=CCSCC1Nc2cc(Cl)c(S(N)(=O)=O)cc2S(=O)(=O)N1 (centres unmarked) [Althiazide]",
    "property_label": "fold induction at 50 µM",
    "meas_value": 0.4
  },
  {
    "compound": "CCCN(CCC)S(=O)(=O)c1ccc(C(=O)O)cc1",
    "property_label": "fold induction at 50 µM",
    "meas_value": 1.3
  },
  {
    "compound": "O=C1NCCN1c1ncc([N+](=O)[O-])s1",
    "property_label": "fold induction at 50 µM",
    "meas_value": 1.4
  },
  {
    "compound": "COc1cc(N)c(Cl)cc1C(=O)NC1CCN(Cc2ccccc2)CC1 [Clebopride maleate]",
    "property_label": "fold induction at 50 µM",
    "meas_value": 1
  }
]

Bench note: what fold induction at 50 µM did COc1cc(NC(C)CCCN)c2ncccc2c1 (centres unmarked) [Primaquine diphosphate] show?
1.1

Bench note: what fold induction at 50 µM did NCc1ccccc1CC(=O)N[C@@H]1C(=O)N2C(C(=O)O)=C(CSc3nnnn3CC(=O)O)CS[C@H]12 [Ceforanide] show?
1.8

Bench note: what fold induction at 50 µM did c1ccc2[nH]c(-c3cscn3)nc2c1 show?
0.5

Bench note: what fold induction at 50 µM did c1ccc(C2CN3CCSC3=N2)cc1 (centres unmarked) [Tetramisole hydrochloride] show?
1.4

Bench note: what fold induction at 50 µM did CCCCC(CC)CN1CN(CC(CC)CCCC)CC(C)(N)C1 (centres unmarked) show?
3

Bench note: what fold induction at 50 µM did CCCCc1cc2ccccc2c(OCCN(C)C)n1 [Dimethisoquin hydrochloride] show?
1.5

Bench note: what fold induction at 50 µM did Cc1cc(N)c2ccccc2[n+]1CCCCCCCCCC[n+]1c(C)cc(N)c2ccccc21 [Dequalinium dichloride] show?
3.2

Bench note: what fold induction at 50 µM did CC[C@H]1CN2CC[C@H]1C[C@H]2[C@H](O)c1ccnc2ccc(OC)cc12 [Hydroquinine hydrobromide hydrate] show?
1.2

Bench note: what fold induction at 50 µM did C[C@@H]1O[C@@H](O[C@H]2[C@H](Oc3cc(O)c4c(c3)O[C@H](c3ccc(O)cc3)CC4=O)O[C@H](CO)[C@@H](O)[C@@H]2O)[C@H](O)[C@H](O)[C@H]1O [Naringin hydrate] show?
1.2

Bench note: what fold induction at 50 µM did N=C(N)c1ccc(OCCCCCOc2ccc(C(=N)N)cc2)cc1 [Pentamidine isethionate] show?
1.2

Bench note: what fold induction at 50 µM did CC1(C)O[C@@H]2C[C@H]3[C@@H]4C[C@H](F)C5=CC(=O)C=C[C@]5(C)[C@H]4[C@@H](O)C[C@]3(C)[C@]2(C(=O)CO)O1 [Flunisolide] show?
0.4

Bench note: what fold induction at 50 µM did CCOC(=O)C1=C(C)NC(C)=C(C(=O)OC)C1c1cccc(Cl)c1Cl (centres unmarked) show?
3

Values from patent US10004701B2
